SYSTEM: UniProt:Q12884
Sequence (Q12884 whole entry): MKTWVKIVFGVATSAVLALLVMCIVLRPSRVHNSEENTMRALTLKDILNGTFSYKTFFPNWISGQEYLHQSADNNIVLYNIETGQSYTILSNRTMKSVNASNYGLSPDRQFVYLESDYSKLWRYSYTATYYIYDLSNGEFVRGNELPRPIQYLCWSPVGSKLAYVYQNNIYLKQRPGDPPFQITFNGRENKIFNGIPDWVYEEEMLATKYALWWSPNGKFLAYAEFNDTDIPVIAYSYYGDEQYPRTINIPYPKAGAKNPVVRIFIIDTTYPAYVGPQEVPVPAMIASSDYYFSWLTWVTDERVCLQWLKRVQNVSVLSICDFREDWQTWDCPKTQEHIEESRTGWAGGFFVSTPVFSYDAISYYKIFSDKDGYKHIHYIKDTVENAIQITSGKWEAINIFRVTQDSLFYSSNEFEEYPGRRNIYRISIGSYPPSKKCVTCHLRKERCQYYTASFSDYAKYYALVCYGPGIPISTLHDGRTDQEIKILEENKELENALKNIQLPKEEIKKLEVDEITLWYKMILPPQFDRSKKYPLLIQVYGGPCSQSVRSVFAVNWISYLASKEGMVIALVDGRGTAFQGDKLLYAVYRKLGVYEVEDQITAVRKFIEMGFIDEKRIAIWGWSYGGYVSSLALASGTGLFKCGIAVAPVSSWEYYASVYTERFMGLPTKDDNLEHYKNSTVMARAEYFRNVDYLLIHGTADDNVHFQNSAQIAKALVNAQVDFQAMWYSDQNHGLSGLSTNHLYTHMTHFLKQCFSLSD
ASSAY PROCEDURE: hFAP Binding Assay
TEST PARAMETERS: read-out: kon (M-1-s-1)
This section presents compounds with their documented kon values.
METRIC: kon (M⁻¹ s⁻¹)

1) N#C[C@@H]1CSCN1C(=O)CNC(=O)c1ccnc2ccc(N3CCCC(F)(F)C3)cc12 : 3e+06
2) N#C[C@@H]1CSCN1C(=O)CNC(=O)c1ccnc2cc(Cl)c(N3CCOCC3)cc12 : 3.2e+06
3) N#C[C@@H]1CSCN1C(=O)CNC(=O)c1ccnc2ccc(N3CCCC[C@@H](F)C3)cc12 : 2.6e+06
4) COC1(C)CCN(c2ccc3nccc(C(=O)NCC(=O)N4CSC[C@H]4C#N)c3c2)CC1 : 1.8e+06
5) C[C@@H]1CCN(c2ccc3nccc(C(=O)NCC(=O)N4CSC[C@H]4C#N)c3c2)C1 : 6.7e+06
6) N#C[C@@H]1CSCN1C(=O)CNC(=O)c1ccnc2ccc(N3CC(C(F)(F)F)C3)cc12 : 1.3e+06
7) N#C[C@@H]1CSCN1C(=O)CNC(=O)c1ccnc2ccc(N3CC(C(F)F)C3)cc12 : 1.1e+06
8) N#C[C@@H]1CSCN1C(=O)CNC(=O)c1ccnc2ccc(N3CC(CF)C3)cc12 : 1.5e+06
9) CC1(C)CN(c2ccc3nccc(C(=O)NCC(=O)N4CSC[C@H]4C#N)c3c2)CCC1(F)F : 520000
10) C[C@@H]1COC[C@H](C)N1c1ccc2nccc(C(=O)NCC(=O)N3CSC[C@H]3C#N)c2c1 : 480000
11) N#C[C@@H]1CSCN1C(=O)CNC(=O)c1ccnc2ccc(-c3cccnc3)cc12 : 1.8e+06
12) N#C[C@@H]1CSCN1C(=O)CNC(=O)c1ccnc2ccc(N3CC(OC(F)F)C3)cc12 : 2e+06
13) N#C[C@@H]1CSCN1C(=O)CNC(=O)c1ccnc2ccc(N3CC(OC(F)(F)F)C3)cc12 : 270000
14) CC1(C)CCCN(c2ccc3nccc(C(=O)NCC(=O)N4CSC[C@H]4C#N)c3c2)C1=O : 490000
15) C[C@]1(O)CCN(c2ccc3nccc(C(=O)NCC(=O)N4CSC[C@H]4C#N)c3c2)C1 : 1.6e+06
16) N#C[C@@H]1CSCN1C(=O)CNC(=O)c1ccnc2ccc(N3CCCCC3=O)cc12 : 1.3e+06
17) N#C[C@@H]1CSCN1C(=O)CNC(=O)c1ccnc2ccc(-n3ccc(-c4ccccc4)c3)cc12 : 670000
18) N#C[C@@H]1CSCN1C(=O)CNC(=O)c1ccnc2ccc(N3CCC4(CC3)COC4)cc12 : 2.4e+06
19) CCC1(OC)CCN(c2ccc3nccc(C(=O)NCC(=O)N4CSC[C@H]4C#N)c3c2)CC1 : 1.5e+06
20) N#C[C@@H]1CSCN1C(=O)CNC(=O)c1ccnc2ccc(N3CCO[C@H](C(F)(F)F)C3)cc12 : 1.1e+06
21) C[C@@H]1CN(c2ccc3nccc(C(=O)NCC(=O)N4CSC[C@H]4C#N)c3c2)CCCO1 : 1.3e+06
22) CC1(C)Cc2c(-c3ccc4nccc(C(=O)NCC(=O)N5CSC[C@H]5C#N)c4c3)cnn2C1 : 3e+06
23) C[C@@H]1CCCN(c2ccc3nccc(C(=O)NCC(=O)N4CSC[C@H]4C#N)c3c2)C1=O : 850000
24) CC(F)(F)C1CN(c2ccc3nccc(C(=O)NCC(=O)N4CSC[C@H]4C#N)c3c2)C1 : 2.8e+06
25) COCC1(C)CN(c2ccc3nccc(C(=O)NCC(=O)N4CSC[C@H]4C#N)c3c2)C1 : 1.1e+06
26) C[C@H]1CCN(c2ccc3nccc(C(=O)NCC(=O)N4CSC[C@H]4C#N)c3c2)C1=O (single isomer, unassigned) : 1.8e+06
27) C[C@H]1N(c2ccc3nccc(C(=O)NCC(=O)N4CSC[C@H]4C#N)c3c2)CC1(F)F : 2.1e+06

Entry source: BindingDB's records for patent US20230312550
